biological target: Plasminogen (Homo sapiens, UniProt P00747); assay: Inhibition of 4.8 X 10^-7 M human plasmin using Z-Lys-nitrophenyl ester as substrate assessed as second-order rate inactivation constant incubated up to 1 hr at pH 7.4
Sequence (P00747 97-580 limits assumed): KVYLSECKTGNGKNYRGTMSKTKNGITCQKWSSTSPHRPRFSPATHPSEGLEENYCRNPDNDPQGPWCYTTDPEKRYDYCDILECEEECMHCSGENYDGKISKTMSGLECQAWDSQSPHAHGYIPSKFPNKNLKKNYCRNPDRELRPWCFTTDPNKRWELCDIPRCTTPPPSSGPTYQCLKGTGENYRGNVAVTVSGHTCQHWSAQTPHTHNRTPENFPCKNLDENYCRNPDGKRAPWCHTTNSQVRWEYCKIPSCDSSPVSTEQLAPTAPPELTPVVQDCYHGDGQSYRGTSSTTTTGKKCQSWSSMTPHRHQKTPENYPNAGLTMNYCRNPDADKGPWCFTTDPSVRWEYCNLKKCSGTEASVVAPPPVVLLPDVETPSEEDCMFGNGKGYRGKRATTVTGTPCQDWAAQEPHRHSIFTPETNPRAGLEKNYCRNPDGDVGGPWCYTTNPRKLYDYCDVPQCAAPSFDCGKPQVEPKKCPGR
Sequence (P00747 581-810 limits assumed): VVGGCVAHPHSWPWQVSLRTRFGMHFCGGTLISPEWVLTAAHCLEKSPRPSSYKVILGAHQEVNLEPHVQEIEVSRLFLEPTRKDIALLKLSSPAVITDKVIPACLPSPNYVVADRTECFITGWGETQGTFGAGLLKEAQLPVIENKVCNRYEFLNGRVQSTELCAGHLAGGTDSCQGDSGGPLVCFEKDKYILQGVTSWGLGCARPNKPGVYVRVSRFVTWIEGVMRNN
Measurement Kind: Kinact (M⁻¹ min⁻¹)

Take a look at these entries with their results.
### Prompt # get_value(readout='Kinact', item= "N=C(N)SCc1ccc(S(=O)(=O)Oc2ccc([N+](=O)[O-])cc2)cc1" )
### Response 125

### Prompt # get_value(readout='Kinact', item= "O=[N+]([O-])c1ccc(OS(=O)(=O)Cc2ccc(-[n+]3ccccc3)cc2)cc1" )
### Response 0

### Prompt # get_value(readout='Kinact', item= "O=[N+]([O-])c1ccc(OS(=O)(=O)Cc2cccc(-[n+]3ccccc3)c2)cc1" )
### Response 0

### Prompt # get_value(readout='Kinact', item= "C[S+](C)c1ccc(CS(=O)(=O)Oc2ccc([N+](=O)[O-])cc2)cc1" )
### Response 0

### Prompt # get_value(readout='Kinact', item= "C[S+](C)c1cccc(CS(=O)(=O)Oc2ccc([N+](=O)[O-])cc2)c1" )
### Response 0

### Prompt # get_value(readout='Kinact', item= "C[S+](C)Cc1ccc(S(=O)(=O)Oc2ccc([N+](=O)[O-])cc2)cc1" )
### Response 0

### Prompt # get_value(readout='Kinact', item= "O=[N+]([O-])c1ccc(OS(=O)(=O)c2ccc(C[n+]3ccccc3)cc2)cc1" )
### Response 0

### Prompt # get_value(readout='Kinact', item= "CNC(=N)SCc1ccc(S(=O)(=O)Oc2ccc([N+](=O)[O-])cc2)cc1" )
### Response 0

a. N=C(N)SCc1ccc(CS(=O)(=O)Oc2cccc([N+](=O)[O-])c2)cc1
b. C[N+](C)(C)Cc1ccc(S(=O)(=O)Oc2ccc([N+](=O)[O-])cc2)cc1
c. N=C(N)SCc1ccc(CS(=O)(=O)Oc2ccc([N+](=O)[O-])cc2)cc1
### Prompt hey, can you rank those compounds up there by Kinact? biggest number first please Give the labels in the order specified.
### Response b, c, a
(b: 50 M⁻¹ min⁻¹, c: 7 M⁻¹ min⁻¹, a: 0 M⁻¹ min⁻¹)
